target: RsCcO E101A mutant (Cereibacter sphaeroides, UniProt P33517+Q03736, E101A); assay: biochemical
Sequence (Q03736 26-303 E101A, one chain of several): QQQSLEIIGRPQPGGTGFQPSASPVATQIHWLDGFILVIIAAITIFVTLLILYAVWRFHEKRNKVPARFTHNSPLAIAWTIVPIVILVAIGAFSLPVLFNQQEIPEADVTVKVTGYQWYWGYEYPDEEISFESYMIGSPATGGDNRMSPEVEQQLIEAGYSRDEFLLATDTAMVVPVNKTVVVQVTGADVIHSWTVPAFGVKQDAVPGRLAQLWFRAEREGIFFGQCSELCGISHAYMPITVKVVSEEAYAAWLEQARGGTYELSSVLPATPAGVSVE
Recorded Endpoint: IC50 (µM)
Only the number, expressed in µM, is required.

## Input Param readout = IC50; param system = RsCcO E101A mutant (Cereibacter sphaeroides, UniProt P33517+Q03736, E101A); param query = CC1=C(/C=C/C(C)=C/C=C/C(C)=C/C(=O)O)C(C)(C)CCC1 [retinoic acid] ; response: value
## Output 190

* * *

target: R. sphaeroides cytochrome c oxidase (RsCcO) wild-type (Cereibacter sphaeroides, UniProt P33517+Q03736); experiment: biochemical; assay type: biochemical, Rhodobacter sphaeroides; conditions: WT, saturating cytochrome c
Sequence (P33517 whole entry): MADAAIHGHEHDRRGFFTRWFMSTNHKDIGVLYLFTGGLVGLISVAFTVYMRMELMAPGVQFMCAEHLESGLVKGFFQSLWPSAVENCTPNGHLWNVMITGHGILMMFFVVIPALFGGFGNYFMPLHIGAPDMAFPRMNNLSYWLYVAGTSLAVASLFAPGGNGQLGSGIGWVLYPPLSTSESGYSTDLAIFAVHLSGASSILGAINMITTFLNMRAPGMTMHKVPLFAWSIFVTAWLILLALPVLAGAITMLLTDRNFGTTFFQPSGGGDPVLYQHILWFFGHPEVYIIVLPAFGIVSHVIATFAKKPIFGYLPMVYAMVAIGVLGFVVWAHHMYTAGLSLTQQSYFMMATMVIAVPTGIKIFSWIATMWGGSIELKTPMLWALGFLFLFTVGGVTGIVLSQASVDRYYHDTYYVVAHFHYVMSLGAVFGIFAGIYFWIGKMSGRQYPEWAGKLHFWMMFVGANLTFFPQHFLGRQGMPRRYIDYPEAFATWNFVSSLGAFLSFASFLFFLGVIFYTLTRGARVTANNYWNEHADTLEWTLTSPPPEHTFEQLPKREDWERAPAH
Sequence (Q03736 26-303): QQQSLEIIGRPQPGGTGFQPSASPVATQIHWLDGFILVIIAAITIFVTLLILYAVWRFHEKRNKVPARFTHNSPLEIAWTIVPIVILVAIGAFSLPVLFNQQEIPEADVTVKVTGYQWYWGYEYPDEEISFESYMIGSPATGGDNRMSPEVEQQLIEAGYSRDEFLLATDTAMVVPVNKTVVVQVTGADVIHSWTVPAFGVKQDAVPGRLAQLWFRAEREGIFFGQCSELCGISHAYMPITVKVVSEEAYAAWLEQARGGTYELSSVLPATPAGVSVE
Recorded Endpoint: Effect on RsCcO activity at maximal ligand concentration

- CC(C)=CCC/C(C)=C/CC/C(C)=C/CO[P@@](=O)(O)OP(=O)(O)O (stereo in doubt) [farnesyl diphosphate]: no significant effect
- Nc1ncnc2c1ncn2[C@@H]1O[C@H](COP(=O)(O)OP(=O)(O)O)[C@@H](O)[C@H]1O: no significant effect
- C[C@]12CC[C@H]3[C@@H](CCC4=CC(=O)CC[C@@]43C)[C@@H]1CC[C@@H]2O: no significant effect
- C[C@]12CC[C@@H]3c4ccc(O)cc4CC[C@H]3[C@@H]1CC[C@@H]2O: no significant effect
